# experimental.target: TEAD2 (Homo sapiens (Human), UniProt Q15562)
# Sequence (Q15562 whole entry): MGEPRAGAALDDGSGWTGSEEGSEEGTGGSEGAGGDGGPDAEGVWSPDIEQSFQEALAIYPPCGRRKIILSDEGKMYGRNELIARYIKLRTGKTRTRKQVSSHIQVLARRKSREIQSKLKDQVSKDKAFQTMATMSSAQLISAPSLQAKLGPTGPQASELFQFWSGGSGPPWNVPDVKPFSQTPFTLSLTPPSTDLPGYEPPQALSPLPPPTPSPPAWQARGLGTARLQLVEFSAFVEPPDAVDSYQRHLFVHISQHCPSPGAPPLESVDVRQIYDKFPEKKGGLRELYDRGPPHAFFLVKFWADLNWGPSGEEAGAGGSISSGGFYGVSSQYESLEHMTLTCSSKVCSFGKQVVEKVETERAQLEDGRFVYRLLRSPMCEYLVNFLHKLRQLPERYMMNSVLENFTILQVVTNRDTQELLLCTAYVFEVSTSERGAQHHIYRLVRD
# method.notes: In vitro palmitoylation (TEAD2 autopalmitoylation, streptavidin blot)
# Format: biochemical
# condition.set: compound at 10 μM; Table 2
readout.type: inhibition at 10 µM (%)

• O=C(O)c1ccccc1Nc1ccc(S(=O)(=O)Nc2ccc(C34CC5CC(CC(C5)C3)C4)cc2)cc1 = 85

(P) O=C(Nc1ccc(C23CC4CC(CC(C4)C2)C3)cc1)c1cccc(Nc2ncccc2C(=O)O)c1
(Q) O=C(Nc1ccc(C23CC4CC(CC(C4)C2)C3)cc1)c1ccc(Cl)c(Nc2ncccc2C(=O)O)c1
(R) O=C(O)c1cccnc1CN1CCN(Cc2ccc(C34CC5CC(CC(C5)C3)C4)cc2Cl)CC1
Task: Hello, I need these entries ordered by inhibition at 10 µM, highest reading first. Thanks! Your answer should be the labels, listed in the requested order.
Output: Q, P, R
(Q: 95%, P: 64%, R: 14%)

(A) CC12CC3CC(C)(C1)CC(c1ccc(NC(=O)c4ccc(Nc5ccccc5C(=O)O)cc4)cc1)(C3)C2
(B) O=C(O)c1cccc(NC(=O)c2cccc(Nc3ccc(C45CC6CC(CC(C6)C4)C5)cc3)c2)c1
Task: Out of A and B , name the one with the higher inhibition at 10 µM. Write down the label of the entry you select.
Output: A
(A: 89%, B: 62%)

(I) O=C(Nc1ccc(C23CC4CC(CC(C4)C2)C3)cc1)c1ccc(Oc2cccc(C(=O)O)n2)cc1
(II) O=C(O)c1ccccc1Nc1ccc(Nc2ccc(-c3ccccc3C(F)(F)F)cc2Cl)cc1
Task: Parameter metric = inhibition at 10 µM. Return the lower-valued option from I and II . Please indicate the selected item by its label.
Output: II

====

# experimental.target: TEAD2 (Homo sapiens (Human), UniProt Q15562)
# method.notes: In vitro palmitoylation (TEAD2 autopalmitoylation, streptavidin blot)
# Format: biochemical
# condition.set: compound at 10 μM; Table 3
readout.type: inhibition at 10 µM (%)

• COc1ccc(Nc2ccc(N(C)c3ccc(C45CC6CC(CC(C6)C4)C5)cc3)cc2)c(CO)c1 = 20
• COc1ccc(Nc2ccc(N(C)c3ccc(OC(F)(F)F)cc3)cc2F)c(C(=O)O)c1 = 97
• COc1ccc(Nc2ccc(N(C)c3ccc(CN4CCCCC4)cc3)cc2)c(C(=O)O)c1 = 6

(a) O=C(O)c1cccc(Nc2cc(Nc3ccc(C4CCCCC4)cc3)cc(C(F)(F)F)c2)n1
(b) Cc1cc(Nc2ccc(C3CCCCC3)cc2)ccc1C(=O)Nc1cccc(C(=O)O)c1
(c) Cc1cc(N(C)c2ccc(C3CCCCC3)cc2Cl)ccc1Nc1cccc(C(=O)O)n1
(d) COc1ccc(Nc2ccc(N(C)c3nc(C(F)(F)F)cs3)cc2)c(C(=O)O)c1
Task: Order the items by recorded inhibition at 10 µM; the first position goes to the largest value. A ranking is expressed here by listing the labels in the requested order.
Output: b, a, d, c
(b: 99%, a: 69%, d: 36%, c: 8%)

(A) COc1ccc(Nc2ccc(N(C)c3ccc(C(F)(F)F)c(Cl)c3)cc2)c(C(=O)O)c1
(B) COc1ccc(Nc2ccc(N(C)c3ccc(C4CCCCC4)cc3)nc2)nc1C(=O)O
Task: Lower value of inhibition at 10 µM belongs to which: A or B ? Selection: enter the item's label.
Output: B
(B: 36%, A: 76%)

====

# experimental.target: TEAD2 (Homo sapiens (Human), UniProt Q15562)
# method.notes: In vitro palmitoylation (TEAD2 autopalmitoylation, streptavidin blot)
# Type: biochemical
# condition.set: compound at 10 μM; Table 3
readout.type: inhibition at 10 µM (%)

- CNS(=O)(=O)c1ccc(Nc2ccc(N(C)c3ccc(C4CCCCC4)cc3Cl)cc2C)c(C(=O)O)c1 [CP-671]: 97
- COc1ccc(Oc2ccc(N(C)c3ccc(C(F)(F)F)cc3)cc2)c(C(=O)O)c1 [CP-587]: 36
- COc1ccc(Nc2ccc(N(C)c3ccc(OCC(F)(F)F)cc3)cc2C)c(C(=O)O)c1 [CP-565]: 100

(a) Cc1cc(N(C)c2ccc(C3CCCCC3)cc2)ccc1Nc1ccc(OCC(C)(C)C)cc1C(=O)O [CP-633]
(b) O=C(O)c1cccc(Nc2cc(Nc3ccc(C4CCCCC4)cc3Cl)cc(C(F)(F)F)c2)c1 [CP-676]
(c) O=C(Nc1ccc(C2CCCCC2)cc1Cl)c1cccc(Nc2ccc(OC3CC3)cc2C(=O)O)c1 [CP-672]
Task: Order the 3 compounds from highest to lowest inhibition at 10 µM. List the labels, following the order given in the request.
Output: b, c, a
(b: 97%, c: 55%, a: 25%)

(I) COc1ccc(Nc2ccc(N(C)c3ccc(C4CCC(F)(F)CC4)cc3)cc2)c(C(=O)O)c1 [CP-552]
(II) COc1ccc(Nc2ccc(N(C)c3ccc(C4CCCCC4)cn3)cc2)c(C(=O)O)c1 [CP-581]
Task: // compare measured inhibition at 10 µM, left I , right II , return larger Provide the label of your selected option as the answer.
Output: I
(I: 74%, II: 40%)

(1) CNC(=O)c1ccc(Nc2ccc(N(C)c3ccc(C4CCCCC4)cc3)cc2C)c(C(=O)O)c1 [CP-632]
(2) Cc1cc(N(C)c2ccc(C3CCCCC3)cc2)ccc1Nc1ccc(OC2CCCCC2)cc1C(=O)O [CP-634]
Task: When the recorded inhibition at 10 µM values are compared, which is smaller: that of 1 or that of 2 ? Respond using the label that marks the chosen record.
Output: 2
(2: 32%, 1: 73%)

====

# experimental.target: UniProt Q15562
# method.notes: In vitro palmitoylation (TEAD2 autopalmitoylation, streptavidin blot)
# Assay type: biochemical
# condition.set: compound at 10 μM; Table 3
readout.type: inhibition at 10 µM (%)

Known inhibition at 10 µM results, listed for orientation:
- COc1ccc(Nc2ccc(N(C)c3ccc(C(F)(F)F)cc3)cc2)c(C(=O)N(C)C)c1 [CP-607]: 37
- CNCc1ccc(Nc2ccc(N(C)c3ccc(C4CCCCC4)cc3)cc2C)c(C(=O)O)c1 [CP-637]: 5
- COc1ccc(Nc2ccc(N(C)c3ccc(C4CCCCC4)cc3)cc2C)c(C(F)(F)F)c1 [CP-629]: 24
- COc1ccc(Nc2cccc(C(=O)Nc3ccc(C4CCCCC4)cc3Cl)c2)c(C(=O)O)c1 [CP-669]: 75
- COc1ccc(Nc2ccc(N(C)c3ccc(C4CCCCC4)cc3)cc2C2CC2)c(C(=O)O)c1 [CP-626]: 87

(a) COc1ccc(Nc2ccc(N(C)c3ccc(C(F)(F)F)cc3)cc2)c(C(=O)O)c1 [CP-521]
(b) COc1ccc(Nc2ccc(N(C)c3cc(C4CCCCC4)nn3C)cc2)c(C(=O)O)c1 [CP-618]
(c) COc1ccc(Nc2ccc(N(C)c3ccc(N4CCOCC4)cc3)cc2)c(C(=O)O)c1 [CP-547]
Task: Reorder the items by inhibition at 10 µM, least to greatest. Would you mind listing the labels in the order asked for?
Output: c, b, a

====

# experimental.target: TEAD2 (Homo sapiens (Human), UniProt Q15562)
# method.notes: In vitro palmitoylation (TEAD2 autopalmitoylation, streptavidin blot)
# Type: biochemical
# condition.set: compound at 10 μM; Table 2
readout.type: inhibition at 10 µM (%)

(A) Cn1c(-c2ccc(Nc3ccc(C45CC6CC(CC(C6)C4)C5)cc3)cc2)nc2cccc(C(=O)O)c21 [Compound 173]
(B) O=C(O)c1cccnc1Nc1ccc(Oc2ccc(C34CC5CC(CC(C5)C3)C4)cc2Cl)cc1 [Compound 252]
(C) CN(c1ccc(Nc2cccc(C(=O)NC34CC5CC(CC(C5)C3)C4)c2)cc1)c1ccccc1C(=O)O [Compound 232]
Task: Hi! Can you put these in order of inhibition at 10 µM, lowest number first? Respond with the label ranking, as requested.
Output: C, A, B

(A) O=C(O)C1=C(C(=O)Nc2ccc(C34CC5CC(CC(C5)C3)C4)cc2)CCC1 [compound 289]
(B) O=C(NCc1ccc(C23CC4CC(CC(C4)C2)C3)cc1)c1ccc(Nc2ccccc2C(=O)O)cc1 [Compound 267]
Task: Dear colleague, could you let me know whether A or B has the lower recorded inhibition at 10 µM? Thanks. Reply with the label of the item you choose.
Output: B

(I) CC12CC3CC(C)(C1)CC(c1ccc(Nc4ccc(Nc5ccccc5C(=O)O)cc4)cc1)(C3)C2 [Compound 177]
(II) CCCCN(c1ccccc1)c1ccc(Nc2ccc(Nc3ccccc3C(=O)O)cc2)cc1 [Compound 174]
(III) CCCCN(c1ccccc1)c1ccc(NC(=O)c2ccc(Nc3ccccc3C(=O)O)cc2)cc1 [Compound 195]
Task: Falling order of inhibition at 10 µM, please. To answer, arrange all of the labels according to the requested order.
Output: II, I, III

====

# experimental.target: UniProt:Q15562
# method.notes: In vitro palmitoylation (TEAD2 autopalmitoylation, streptavidin blot)
# Format: biochemical
# condition.set: compound at 10 μM; Table 2
readout.type: inhibition at 10 µM (%)

For orientation, consider the following solved cases.
• O=C(O)c1nccnc1Nc1ccc(Nc2ccc(C34CC5CC(CC(C5)C3)C4)cc2Cl)cc1 [Compound 86] = 54
• O=C(O)c1cccc(Nc2ccc(S(=O)(=O)Nc3ccc(C45CC6CC(CC(C6)C4)C5)cc3)cc2)n1 [Compound 194] = 20
• O=C(O)c1ccccc1Nc1ccc(Nc2ccc(C34CC5CC(CC(C5)C3)C4)cc2)cc1C(F)(F)F [Compound 80] = 40
• CCCCN(c1ccccc1)c1ccc(N(C)c2ccc(N(C)c3ccccc3C(=O)O)cc2)cc1 [Compound 187] = 57
• CN(C(=O)c1ccc(Nc2ccc(C34CC5CC(CC(C5)C3)C4)cc2)cc1)c1ccccc1C(=O)O [Compound 221] = 61

(a) O=C(N[C@H]1CCC[C@H]1C(=O)O)c1ccc(Nc2ccc(C34CC5CC(CC(C5)C3)C4)cc2Cl)cc1 [Compound 77]
(b) O=C(O)Cn1cnc2cc(Nc3ccc(C45CC6CC(CC(C6)C4)C5)cc3Cl)ccc21 [Compound 108]
Task: Identify the entry with the larger inhibition at 10 µM. Options: a and b # answer = label of selected item
Output: b
